src = patent US20230014907A1

Target: APOL1 G1 Protein (Homo sapiens, UniProt O14791, I384M/S342G)
Sequence (O14791 28-398 S342G/I384M): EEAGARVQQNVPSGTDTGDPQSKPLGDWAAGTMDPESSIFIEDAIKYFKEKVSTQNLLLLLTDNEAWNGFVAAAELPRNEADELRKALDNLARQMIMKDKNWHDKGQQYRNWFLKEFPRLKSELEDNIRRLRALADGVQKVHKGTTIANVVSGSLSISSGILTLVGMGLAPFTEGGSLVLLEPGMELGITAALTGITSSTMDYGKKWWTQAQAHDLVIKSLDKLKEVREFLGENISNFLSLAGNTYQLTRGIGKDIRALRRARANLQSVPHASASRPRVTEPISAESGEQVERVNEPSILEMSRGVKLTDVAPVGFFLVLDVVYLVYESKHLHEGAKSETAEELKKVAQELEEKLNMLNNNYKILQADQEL
Assay: Trypanosoma brucei brucei Lysis Assay Using APOL1 Recombinant Protein (AlamarBlue viability)
Conditions: read-out: Trypanosomal Assay (IC50)
Measured IC50, listed per entry.

Study these solved cases before continuing.
COMPOUND | IC50
CC(NC(=O)CCc1c(-c2ccc(F)cc2)[nH]c2c(F)cc(F)cc12)c1ccn(C)n1 (racemic) | > 1000 nM
CN(CCN)C(=O)CCc1c(-c2ccc(F)cc2)[nH]c2ccc(F)cc12 | > 1000 nM
O=C(CCc1c(-c2ccc(F)cc2)[nH]c2c(F)cc(F)cc12)NC(CO)CF (stereo not shown) | < 250 nM

From here, focus on the item given below.
Specify measured IC50 for N#Cc1ccc(-c2[nH]c3c(F)cc(F)cc3c2CCC(=O)N[C@@H](CO)C(F)(F)F)cc1 .
< 250 nM

* * *

Target: APOL1 G1 Protein (Homo sapiens, UniProt O14791, I384M/S342G)
Sequence (O14791 28-398 S342G/I384M): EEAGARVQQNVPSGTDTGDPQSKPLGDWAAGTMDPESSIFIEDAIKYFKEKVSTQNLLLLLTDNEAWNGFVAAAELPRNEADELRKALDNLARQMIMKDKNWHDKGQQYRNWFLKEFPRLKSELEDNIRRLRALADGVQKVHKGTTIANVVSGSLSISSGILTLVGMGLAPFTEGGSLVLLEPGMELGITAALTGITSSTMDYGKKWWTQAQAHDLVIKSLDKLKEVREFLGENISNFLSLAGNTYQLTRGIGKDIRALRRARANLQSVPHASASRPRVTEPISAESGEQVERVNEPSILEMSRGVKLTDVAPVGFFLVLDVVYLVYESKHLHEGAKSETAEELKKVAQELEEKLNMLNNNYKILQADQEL
Experiment: Trypanosoma brucei brucei Lysis Assay Using APOL1 Recombinant Protein (AlamarBlue viability)
Settings: read-out: Trypanosomal Assay (IC50)
Measured IC50, listed per entry.

Study these solved cases before continuing.
MOLECULE | TEST READOUT | RESULT
CC(C)C[C@@H](CO)NC(=O)CCc1c(-c2ccc(F)cc2)[nH]c2c(F)cc(F)cc12 [Compound 158] | IC50 | > 1000 nM
CS(=O)(=O)CNC(=O)CCc1c(-c2ccc(F)cc2)[nH]c2c(F)cc(F)cc12 [Compound 173] | IC50 | > 1000 nM
O=C(CCc1c(-c2ccc(F)cc2)[nH]c2c(F)cc(F)cc12)NC1CC1(F)F (centres unmarked) [Compound 142] | IC50 | > 1000 nM
O=C(CCc1c(-c2ccc(F)cc2)[nH]c2c(F)cc(Br)cc12)N[C@H](CO)C(F)(F)F [Compound 228] | IC50 | > 1000 nM
O=C(CCc1c(-c2ccc(F)cc2)[nH]c2c(F)cc(F)cc12)NCc1cn(CC(F)(F)F)cn1 [Compound 168] | IC50 | > 1000 nM

Specify measured IC50 for CC1(NC(=O)CCc2c(-c3ccc(F)cc3)[nH]c3c(F)cc(F)cc23)CCOC1=O (racemic) [Compound 105] .
250 to 1000 nM

Specify measured IC50 for O=C(CCc1c(-c2ccc(F)cc2)[nH]c2ccc(F)cc12)N[C@H]1C[C@@H]1c1ccccc1 [Compound 23] .
> 1000 nM

Specify measured IC50 for O=C(CCc1c(-c2ccc(F)cc2)[nH]c2ccc(F)cc12)NC1(CO)CCC1 [Compound 4] .
< 250 nM

Specify measured IC50 for O=C(CCc1c(-c2ccc(F)cc2)[nH]c2ccc(F)cc12)N[C@@H](CO)C(F)(F)F [Compound 1] .
< 250 nM

Specify measured IC50 for CN1CC(NC(=O)CCc2c(-c3ccc(F)cc3)[nH]c3ccc(F)cc23)C(=O)N1 (centres unmarked) [Compound 41] .
> 1000 nM

* * *

Molecular target: G1 APOL1 (Homo sapiens, UniProt O14791, I384M/S342G)
Construct: expressed in transfected cells
Assay: Acute APOL1 Thallium Assay with Inducible Stable Clones of HEK 293 Cells
Type: cell-based
Conditions: HEK 293 inducible stable clones, G1 APOL1; read-out: Thallium Assay (IC50)
TEST READOUT: IC50

Study these solved cases before continuing.
COMPOUND | RESULT
O=C(Cn1cccc1)NCCc1c(-c2ccc(F)cc2)[nH]c2c(F)cc(F)cc12 | > 1000 nM
O=C(NCCc1c(-c2ccc(F)cc2)[nH]c2c(F)cc(F)cc12)c1cc[nH]n1 | > 1000 nM
Cc1cnn(CC(=O)NCCc2c(-c3ccc(F)cc3)[nH]c3c(F)cc(F)cc23)c1 | > 1000 nM
O=C(NCCc1c(-c2ccc(F)cc2)[nH]c2c(F)cc(F)cc12)[C@@H]1CCOC1 | > 1000 nM
CC1(NC(=O)OC(C)(C)C)CCN(C(=O)CCc2c(-c3ccc(F)cc3)[nH]c3ccc(F)cc23)C1 (centres unmarked) | > 1000 nM
O=C(NCCc1c(-c2ccc(F)cc2)[nH]c2c(F)cc(F)cc12)N1CCC[C@H]1CO | > 1000 nM
Cc1cc(F)c2[nH]c(-c3ccc(F)cc3)c(CCC(=O)N[C@H](C)CO)c2c1 | 250 to 1000 nM

From here, focus on the item given below.
Look up and report IC50, with G1 APOL1 (Homo sapiens, UniProt O14791, I384M/S342G) as system, for O=C(CCc1c(-c2ccc(F)cc2)[nH]c2c(F)cc(F)cc12)N1CC[C@H]1CO
> 1000 nM

* * *

Target: G1 APOL1 (Homo sapiens, UniProt O14791, I384M/S342G)
Construct: expressed in transfected cells
Experiment: Acute APOL1 Thallium Assay with Inducible Stable Clones of HEK 293 Cells
Format: cell-based
Details: HEK 293 inducible stable clones, G1 APOL1; read-out: Thallium Assay (IC50)
TEST READOUT: IC50

Study these solved cases before continuing.
MOLECULE | IC50
O=C(NCc1ccco1)OCCc1c(-c2ccc(F)cc2)[nH]c2c(F)cc(F)cc12 [Compound 481] | > 1000 nM
O=C(CCc1c(-c2ccc(F)cc2)[nH]c2c(F)cc(Cl)cc12)N[C@H](CO)C(F)(F)F [Compound 205] | > 1000 nM
CC(CO)CNC(=O)NCCc1c(-c2ccc(F)cc2)[nH]c2c(F)cc(F)cc12 (racemic) [Compound 280] | > 1000 nM
O=C(CCc1c(-c2ccc(F)cc2)[nH]c2ccc(F)cc12)N[C@@H](CO)C(F)(F)F [Compound 1] | < 250 nM
O=C(CC1CC(=O)NC(=O)C1)NCCc1c(-c2ccc(F)cc2)[nH]c2c(F)cc(F)cc12 [Compound 318] | > 1000 nM
C[C@@H](CO)N(C)C(=O)NCCc1c(-c2ccc(F)cc2)[nH]c2c(F)cc(F)cc12 [Compound 300] | > 1000 nM
Cn1cc(CNC(=O)OCCc2c(-c3ccc(F)cc3)[nH]c3c(F)cc(F)cc23)nn1 [Compound 490] | > 1000 nM
O=C(NCCc1c(-c2ccc(F)cc2)[nH]c2c(F)cc(F)cc12)c1cncnc1 [Compound 400] | > 1000 nM

Specify measured IC50 for O=C1C[C@H](NC(=O)CCCc2c(-c3ccc(F)cc3)[nH]c3c(F)cc(F)cc23)C(=O)N1 [Compound 245] .
> 1000 nM

Specify measured IC50 for Cc1ccc(CNC(=O)OCCc2c(-c3ccc(F)cc3)[nH]c3c(F)cc(F)cc23)o1 [Compound 485] .
> 1000 nM

Specify measured IC50 for O=C(CCc1c(-c2ccc(F)cc2)[nH]c2c(F)cc(F)cc12)Nc1nnc(C(F)(F)F)o1 [Compound 148] .
> 1000 nM

Specify measured IC50 for O=C(NCCc1c(-c2ccc(F)cc2)[nH]c2c(F)cc(F)cc12)NCc1cccc(O)c1 [Compound 264] .
> 1000 nM

Specify measured IC50 for CC(C)(CO)NC(=O)CCc1c(-c2ccc(F)cc2)[nH]c2ccc(F)cc12 [Compound 19] .
250 to 1000 nM

Specify measured IC50 for O=C(CCc1c(-c2ccc(F)cc2)[nH]c2c(F)cc(F)cc12)NC(CO)c1ccccn1 (stereo not shown) [Compound 185] .
> 1000 nM

Specify measured IC50 for Cn1nccc1CNC(=O)CCCc1c(-c2ccc(F)cc2)[nH]c2c(F)cc(F)cc12 [Compound 255] .
> 1000 nM

Specify measured IC50 for CC(C)(C)OC(=O)NC1CN(C(=O)CCc2c(-c3ccc(F)cc3)[nH]c3ccc(F)cc23)C1 [Compound 52] .
> 1000 nM

Specify measured IC50 for Cn1cnc(CNC(=O)CCCc2c(-c3ccc(F)cc3)[nH]c3c(F)cc(F)cc23)c1 [Compound 244] .
> 1000 nM

Specify measured IC50 for CC(=O)NCC(=O)NCCc1c(-c2ccc(F)cc2)[nH]c2c(F)cc(F)cc12 [Compound 344] .
> 1000 nM

Specify measured IC50 for CC1(C)COC(=O)C1NC(=O)CCc1c(-c2ccc(F)cc2)[nH]c2c(F)cc(F)cc12 (stereo not shown) [Compound 193] .
> 1000 nM

Specify measured IC50 for O=C(NC(CO)CF)OCCc1c(-c2ccc(F)cc2)[nH]c2c(F)cc(F)cc12 (stereo not shown) [Compound 471] .
250 to 1000 nM

Specify measured IC50 for O=C(NCCc1c(-c2ccc(F)cc2)[nH]c2c(F)cc(F)cc12)C(O)C(F)(F)F (stereo not shown) [Compound 327] .
250 to 1000 nM

Specify measured IC50 for C[C@H](N)C(=O)NCCc1c(-c2ccc(F)cc2)[nH]c2c(F)cc(F)cc12 [Compound 363] .
> 1000 nM

Specify measured IC50 for O=C(NCCc1ccncc1)NCCc1c(-c2ccc(F)cc2)[nH]c2c(F)cc(F)cc12 [Compound 288] .
> 1000 nM

Specify measured IC50 for CC1(CO)CCN1C(=O)OCCc1c(-c2ccc(F)cc2)[nH]c2c(F)cc(F)cc12 (racemic) [Compound 480] .
> 1000 nM

Specify measured IC50 for C[C@@H](O)[C@@H](CO)NC(=O)OCCc1c(-c2ccc(F)cc2)[nH]c2c(F)cc(F)cc12 [Compound 454] .
250 to 1000 nM
